- SYSTEM TESTED: Glucocorticoid receptor (Homo sapiens, UniProt P04150)
- PROTOCOL TEXT: Binding affinity to glucocorticoid receptor expressed in baculovirus-infected insect cells using tetramethylrhodamine labeled Dexamethasone by fluorescence polarization microplate assay
pIC50: −log10 of the molar value.
TEST READOUT: pIC50

Reference set, count: 4
> print(dat)
                                   molecule  recorded.result
1  COc1ccc(-c2ccccc2)cc1C(C)(C)CC(O)(Cc1cc2ccncc2[nH]1)C(F)(F)F (centres undefined)             7.92
2  CC(C)(CC(O)(Cc1cc2ccncc2[nH]1)C(F)(F)F)c1cc(-c2cccnc2)ccc1O (centres undefined)             8.18
3  COc1ccc(-c2cncnc2)cc1C(C)(C)CC(O)(Cc1cc2ccncc2[nH]1)C(F)(F)F (centres undefined)             7.57
4  COc1ccc(F)cc1C(C)(C)CC(O)(Cc1cc2ncccc2[nH]1)C(F)(F)F (centres undefined)             7.64

[1] COc1ccc(-c2cncnc2)cc1C(C)(C)C[C@@](O)(Cc1cc2ccncc2[nH]1)C(F)(F)F
[2] COc1ccc(F)cc1C(C)(C)CC(O)(Cc1cc2ccncc2[nH]1)C(F)(F)F (centres undefined)
[3] CC(C)(CC(O)(Cc1cc2ccncc2[nH]1)C(F)(F)F)c1cc(F)cc2c1OCC2 (centres undefined)
[4] COc1ccc(F)cc1C(C)(C)CC(O)(Cn1ccc2ccncc21)C(F)(F)F (centres undefined)
[5] COc1ccc(F)cc1C(C)(C)CC(O)(Cc1cc2cc[n+]([O-])cc2[nH]1)C(F)(F)F (centres undefined)
## Task Sort these molecules on pIC50 so the largest reading comes first. Labels, ranked as asked.
## Result 3, 2, 1, 5, 4
(3: 8.64, 2: 8.36, 1: 8.10, 5: 6.07, 4: 5.85)

###

- SYSTEM TESTED: Progesterone receptor (Homo sapiens)
- Sequence (P06401 whole entry): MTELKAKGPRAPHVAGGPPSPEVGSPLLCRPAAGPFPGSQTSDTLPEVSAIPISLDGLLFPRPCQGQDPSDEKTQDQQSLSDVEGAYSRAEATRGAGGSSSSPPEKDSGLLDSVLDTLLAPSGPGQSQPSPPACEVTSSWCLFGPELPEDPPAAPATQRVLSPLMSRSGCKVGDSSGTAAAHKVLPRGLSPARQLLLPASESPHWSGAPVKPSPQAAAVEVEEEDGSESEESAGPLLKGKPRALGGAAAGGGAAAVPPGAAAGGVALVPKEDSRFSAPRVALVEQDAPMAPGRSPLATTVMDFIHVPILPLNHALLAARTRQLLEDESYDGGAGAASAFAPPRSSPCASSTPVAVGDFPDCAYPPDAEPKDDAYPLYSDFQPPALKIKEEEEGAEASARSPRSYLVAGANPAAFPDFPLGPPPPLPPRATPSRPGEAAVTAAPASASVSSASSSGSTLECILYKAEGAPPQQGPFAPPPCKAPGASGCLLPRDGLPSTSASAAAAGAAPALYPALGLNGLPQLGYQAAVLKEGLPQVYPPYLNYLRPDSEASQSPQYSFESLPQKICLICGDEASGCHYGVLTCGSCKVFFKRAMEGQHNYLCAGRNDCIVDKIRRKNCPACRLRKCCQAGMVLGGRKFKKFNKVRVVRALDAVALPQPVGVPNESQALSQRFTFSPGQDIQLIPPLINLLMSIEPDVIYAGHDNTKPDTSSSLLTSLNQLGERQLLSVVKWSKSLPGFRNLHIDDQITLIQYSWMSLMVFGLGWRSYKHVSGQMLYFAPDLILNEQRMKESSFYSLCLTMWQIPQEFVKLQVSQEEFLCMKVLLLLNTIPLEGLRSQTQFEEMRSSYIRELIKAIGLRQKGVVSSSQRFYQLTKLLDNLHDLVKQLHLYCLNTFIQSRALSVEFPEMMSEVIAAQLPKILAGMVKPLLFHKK
TEST READOUT: IC50 (µM)

> print(dat)
                                   compound                         system.tested  recorded.result
1  CC(C)(CC(O)(Cc1cc2ccncc2[nH]1)C(F)(F)F)c1cc(Cl)cc2c1OCC2 (stereo unspecified)  Progesterone receptor (Homo sapiens)             1.21
2  COc1ccc(F)cc1C(C)(C)C[C@@](O)(Cc1cc2ccncc2[nH]1)C(F)(F)F  Progesterone receptor (Homo sapiens)             1.15

[P] CC(C)(CC(O)(Cc1cc2ccncc2[nH]1)C(F)(F)F)c1ccccc1 (stereo unspecified)
[Q] CC(C)(CC(O)(Cc1cc2ccncc2[nH]1)C(F)(F)F)c1cc(-c2ccccc2)ccc1O (stereo unspecified)
[R] CC(C)(C[C@@](O)(Cc1cc2cnccc2[nH]1)C(F)(F)F)c1cc(F)ccc1O
## Task Sort entries by IC50 from minimum to maximum value. Answer format: the labels, ordered as requested.
## Result P, Q, R

###

- PROTOCOL TEXT: Clearance in Sprague-Dawley rat at 5 mg/kg, iv
- Format: ADME, organism-based
- Parameters: dose 5 mg/kg, route intravenous
- CONDITIONS USED: in vivo
TEST READOUT: clearance (mL/min/kg)
Write the number in mL/min/kg without appending the unit.

The value of clearance measured for the compound `COc1ccc(F)cc1C(C)(C)C[C@@](O)(Cc1cc2ccncc2[nH]1)C(F)(F)F` turned out to be 61

###

- SYSTEM TESTED: UniProt P04150
- Sequence (P04150 whole entry): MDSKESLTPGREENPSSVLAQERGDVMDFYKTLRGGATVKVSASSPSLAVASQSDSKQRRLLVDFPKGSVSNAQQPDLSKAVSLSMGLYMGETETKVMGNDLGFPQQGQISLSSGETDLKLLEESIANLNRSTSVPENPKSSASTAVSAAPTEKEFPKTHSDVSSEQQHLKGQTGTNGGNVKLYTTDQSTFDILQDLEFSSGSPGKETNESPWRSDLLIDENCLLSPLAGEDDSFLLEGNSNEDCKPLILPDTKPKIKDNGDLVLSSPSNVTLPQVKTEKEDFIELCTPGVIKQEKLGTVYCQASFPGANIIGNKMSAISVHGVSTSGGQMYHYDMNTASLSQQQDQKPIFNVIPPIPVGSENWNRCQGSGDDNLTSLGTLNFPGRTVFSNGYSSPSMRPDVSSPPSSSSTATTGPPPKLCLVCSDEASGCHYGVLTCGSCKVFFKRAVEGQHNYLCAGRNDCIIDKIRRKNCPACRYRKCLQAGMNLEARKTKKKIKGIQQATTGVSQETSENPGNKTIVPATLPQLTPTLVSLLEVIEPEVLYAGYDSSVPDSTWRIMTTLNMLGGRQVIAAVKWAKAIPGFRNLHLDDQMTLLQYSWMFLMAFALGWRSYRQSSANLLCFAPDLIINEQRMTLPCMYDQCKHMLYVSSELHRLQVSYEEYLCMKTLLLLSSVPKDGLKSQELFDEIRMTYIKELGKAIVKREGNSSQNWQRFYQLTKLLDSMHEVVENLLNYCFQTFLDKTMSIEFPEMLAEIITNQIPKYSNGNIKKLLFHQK
- PROTOCOL TEXT: Binding affinity to glucocorticoid receptor expressed in baculovirus-infected insect cells using tetramethylrhodamine labeled Dexamethasone by fluorescence polarization microplate assay
pIC50: −log10 of the molar value.
TEST READOUT: pIC50

Recorded pIC50, per entry:
> print(dat)
                                   compound   system.tested  test.readout  recorded.result
1  COc1ccc(F)cc1C(C)(C)C[C@@](O)(Cc1cc2cnccc2[nH]1)C(F)(F)F  UniProt P04150         pIC50             8.85
2  CC(C)(CC(O)(Cc1cc2ccncc2[nH]1)C(F)(F)F)c1cc(-c2cncnc2)ccc1O (stereo not given)  UniProt P04150         pIC50             7.72
3  CC(C)(CC(O)(Cc1cc2ccncc2[nH]1)C(F)(F)F)c1cc(-c2ccccc2)ccc1O (stereo not given)  UniProt P04150         pIC50             7.96
4  CC(C)(CC(O)(Cc1cc2ccncc2[nH]1)C(F)(F)F)c1ccccc1 (stereo not given)  UniProt P04150         pIC50             8.03
5  COc1ccc(F)cc1C(C)(C)CC(O)(Cc1cc2ccncc2o1)C(F)(F)F (stereo not given)  UniProt P04150         pIC50             7.66

[a] CC(C)(CC(O)(Cc1cc2ccncc2[nH]1)C(F)(F)F)c1cccc2c1OCC2 (stereo not given)
[b] COc1ccc(F)cc1C(C)(C)C[C@@](O)(Cc1cc2ccncc2[nH]1)C(F)(F)F
[c] CC(C)(CC(O)(Cc1cc2ccncc2[nH]1)C(F)(F)F)c1cccc(F)c1 (stereo not given)
## Task Write the entries in order, lowest recorded pIC50 first. Thanks in advance for listing the labels in the requested order.
## Result c, a, b
(c: 7.64, a: 8.35, b: 8.85)

[a] COc1ccc(F)cc1C(C)(C)CC(O)(Cn1ccc2ncccc21)C(F)(F)F (stereo not given)
[b] CC(C)(CC(O)(Cc1cc2ccncc2[nH]1)C(F)(F)F)c1cc(Cl)cc2c1OCC2 (stereo not given)
## Task Rank a against b by their pIC50 values and give the higher one. Provide the label of your selected option as the answer.
## Result a
(a: 8.70, b: 8.15)
